Task for the reader: assign each of the following compounds its reported IC50.
- ASSAYED TARGET: EGFR L858R/T790M (Homo sapiens, UniProt P00533, L858R/T790M)
- Construct: purchased Carna Bio
- Sequence (P00533 25-1210 T790M/L858R): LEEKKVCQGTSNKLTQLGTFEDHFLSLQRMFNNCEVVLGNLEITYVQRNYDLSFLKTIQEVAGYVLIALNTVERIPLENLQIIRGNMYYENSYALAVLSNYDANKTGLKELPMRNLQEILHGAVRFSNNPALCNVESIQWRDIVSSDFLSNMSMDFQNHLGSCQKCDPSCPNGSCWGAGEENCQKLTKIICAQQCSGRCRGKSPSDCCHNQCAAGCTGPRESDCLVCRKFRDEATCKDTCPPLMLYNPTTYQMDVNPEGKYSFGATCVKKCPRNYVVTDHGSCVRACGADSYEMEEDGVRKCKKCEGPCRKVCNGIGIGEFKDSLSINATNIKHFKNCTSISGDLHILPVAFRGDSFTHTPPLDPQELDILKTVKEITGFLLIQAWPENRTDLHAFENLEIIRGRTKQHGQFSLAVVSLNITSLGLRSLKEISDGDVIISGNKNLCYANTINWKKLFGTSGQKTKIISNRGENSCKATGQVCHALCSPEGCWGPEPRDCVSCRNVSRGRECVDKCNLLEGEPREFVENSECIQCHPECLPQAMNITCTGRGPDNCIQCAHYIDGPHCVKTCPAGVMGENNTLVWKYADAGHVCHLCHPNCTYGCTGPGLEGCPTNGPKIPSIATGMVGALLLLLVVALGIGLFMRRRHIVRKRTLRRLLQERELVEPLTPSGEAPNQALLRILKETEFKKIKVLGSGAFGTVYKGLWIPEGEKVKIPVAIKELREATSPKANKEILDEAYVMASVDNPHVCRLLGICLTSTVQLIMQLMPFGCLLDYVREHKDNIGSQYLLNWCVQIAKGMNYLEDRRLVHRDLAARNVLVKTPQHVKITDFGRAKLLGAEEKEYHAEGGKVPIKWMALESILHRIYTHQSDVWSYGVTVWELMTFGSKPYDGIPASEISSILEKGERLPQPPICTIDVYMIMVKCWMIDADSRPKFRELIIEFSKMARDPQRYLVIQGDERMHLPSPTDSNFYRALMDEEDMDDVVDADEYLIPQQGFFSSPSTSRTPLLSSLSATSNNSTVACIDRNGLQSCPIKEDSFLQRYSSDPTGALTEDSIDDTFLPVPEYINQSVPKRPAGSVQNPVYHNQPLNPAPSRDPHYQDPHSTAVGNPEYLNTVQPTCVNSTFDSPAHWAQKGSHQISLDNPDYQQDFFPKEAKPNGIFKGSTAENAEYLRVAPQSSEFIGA
- TEST DESCRIPTION: Inhibition of EGFR L858R/T790M biochemical enzymatic activity (HTRF)
- STUDY CONDITIONS: EGFR L858R-T790M, 1 mM ATP, 1 h, room temperature, read-out: IC50 (nM) @L858R-T790M

Reference set (2 entries):
>  <COMPOUND>
CN1CCC2(CCN(c3ccc4nc5n(c4c3)C34CCC(CN(CCOc6c(cnn6C)-c6cc(cn(C)c6=O)C(=O)N5)C3)C4)CC2)C1 (single isomer, unassigned) [Example A82A]

>  <IC50>
> 5000 nM

$$$$
>  <COMPOUND>
CN1CCC12CCN(c1ccc3nc4n(c3c1)C13CCC(CN(CCOc5c(cnn5C)-c5cc(cn(C)c5=O)C(=O)N4)C1)C3)CC2 (single isomer, unassigned) [Example A67A]

>  <IC50>
> 5000 nM

$$$$

Turning to the following compound.
## Input Param readout = IC50; param system = EGFR L858R/T790M (Homo sapiens, UniProt P00533, L858R/T790M); param query = CN1CCC2(CC1)CCN(c1ccc3nc4n(c3c1)C13CCC(CN(CCOc5c(cnn5C)-c5cc(cn(C)c5=O)C(=O)N4)C1)C3)C2 (single isomer, unassigned) [Example A88A] ; response: value
## Output > 5000 nM
